- System: 786-0 renal
- MEASUREMENT_NOTES: NCI tumour cell line growth inhibition, 48 h
MEASURED_PARAMETER: TGI

Lookup: Please tell me: TGI of COc1c(O)c2c3c(cc(C)cc3c1C(C)C)OC2 , system 786-0 renal?
Found: > 100 µM

Lookup: Test system 786-0 renal; read-out TGI; what value for CCOP(=O)(/C=C\n1cc(C)c(=O)[nH]c1=O)OCC ?
Found: > 100 µM

Others:
Lookup: Enter reported TGI observed with 786-0 renal for CSCCC(N)C(=O)NCCNc1ccc(NCCNC(=O)C(N)CCSC)c2c1C(=O)c1ccccc1C2=O (configuration not stated)
Found: 1.89 µM

* * *

Each entry below carries its reported TGI.
- Tested on: SF-268 CNS
- MEASUREMENT_NOTES: NCI tumour cell line growth inhibition, 48 h

Lookup: TGI of COc1cc([C@@H]2c3cc4c(cc3[C@@H](c3c(O)cc(O)c5c3O[C@H](c3ccc(O)c(O)c3)[C@@H](O)C5)[C@H]3COC(=O)[C@H]23)OCO4)cc(OC)c1OC on SF-268 CNS?
Found: > 100 µM

* * *

- Test system: CCRF-CEM leukemia
- MEASUREMENT_NOTES: NCI tumour cell line growth inhibition, 48 h
MEASURED_PARAMETER: TGI

Answered cases to consult:
Lookup: Fill in the recorded TGI for this compound, with CCRF-CEM leukemia as test system: CC(C)CNc1nc2ncnc(N)c2[nH]1
Found: > 100 µM

Lookup: What reported TGI corresponds to COc1cc(OC)c2nc(C)c3c(c2c1)SCC3 on CCRF-CEM leukemia?
Found: > 100 µM

Lookup: Please provide the recorded TGI for CSc1nnc(CCC(=O)Nc2c(C)cccc2C)o1 , tested on CCRF-CEM leukemia.
Found: > 100 µM

Lookup: For CCRF-CEM leukemia, provide TGI of ClCCCc1ccccc1C1=NCCc2ccccc21 please.
Found: > 100 µM

Lookup: Field: TGI (CCRF-CEM leukemia). Entry: C/C(=N/NC(=S)N1CCCCC1)c1ccccc1O
Found: > 31.6 µM

---
Lookup: Given the entry Cc1cc2c(cc1Cl)SC1=NN(C)C(C)N1S2(=O)=O (stereo not drawn) , what TGI was observed with CCRF-CEM leukemia?
Found: > 100 µM

Lookup: Please tell me: TGI of CC1=C(C(=O)Nc2ccc3n[nH]c(C)c3c2)C(c2ccc(C(F)(F)F)cc2)CC(=O)N1 (stereo not drawn) , system CCRF-CEM leukemia?
Found: > 25 µM

Lookup: Form field: TGI recorded for O=C1NC(Nc2ccccc2)=NC(C(F)(F)F)(C(F)(F)F)N1 with CCRF-CEM leukemia (enter value)
Found: > 100 µM

* * *

- Tested on: NCI-H23 lung
- MEASUREMENT_NOTES: NCI tumour cell line growth inhibition, 48 h
Each record here notes measured TGI.

Lookup: Return reported TGI; argument: COc1ccc2c(c1)C(=O)c1ccc(OC)cc1C2=S
Found: > 100 µM

Lookup: May I ask what TGI has been recorded for Cc1cc(F)ccc1S(=O)(=O)Nc1cc(-c2c(O)ccc3ccccc23)c(O)c2ccccc12 ?
Found: 13.3 µM

Lookup: Endpoint output: TGI of COc1ccc2c(CN3CCCC[C@H]3C(=O)O)cc3cc4c(cc3c2c1)OCO4 . Value?
Found: > 100 µM

Lookup: For the compound shown here, O=C1Nc2ccc(Br)cc2C1=Nc1cccnc1 , give the reported TGI.
Found: 45.4 µM

Lookup: I have this compound here, CCN(CC)N1C(=O)[N+](CC)(CC)N=C1[O-] , and I need its recorded TGI.
Found: > 100 µM

---
Lookup: Find the recorded TGI belonging to CO/N=C1\CC(NC(=O)CNC(=O)OC(C)(C)C)c2ccsc21 (centres undefined) and report it.
Found: > 100 µM

Lookup: Param item = C[N+](C)(C)c1ccc(C(N)C(=O)O)cc1 (centres undefined) ; retrieve measured TGI.
Found: > 100 µM

Lookup: I have this compound here, C=C/C(C)=C\CC1[C@](C)(O)CC[C@H]2C(C)(C)C(=O)CC[C@]12C (some centres undefined) , and I need its recorded TGI.
Found: > 100 µM

Lookup: Please look up its TGI: Cc1ccc(S(=O)(=O)n2c3ccc(Br)cc3c3nc4ccccc4nc32)cc1
Found: > 100 µM
